Source of measurements: ChEMBL document CHEMBL1134391

molecules and their reported IC50
target_entity: Neuraminidase (Influenza B virus (strain B/Lee/1940), UniProt P03474)
Sequence (P03474 whole entry): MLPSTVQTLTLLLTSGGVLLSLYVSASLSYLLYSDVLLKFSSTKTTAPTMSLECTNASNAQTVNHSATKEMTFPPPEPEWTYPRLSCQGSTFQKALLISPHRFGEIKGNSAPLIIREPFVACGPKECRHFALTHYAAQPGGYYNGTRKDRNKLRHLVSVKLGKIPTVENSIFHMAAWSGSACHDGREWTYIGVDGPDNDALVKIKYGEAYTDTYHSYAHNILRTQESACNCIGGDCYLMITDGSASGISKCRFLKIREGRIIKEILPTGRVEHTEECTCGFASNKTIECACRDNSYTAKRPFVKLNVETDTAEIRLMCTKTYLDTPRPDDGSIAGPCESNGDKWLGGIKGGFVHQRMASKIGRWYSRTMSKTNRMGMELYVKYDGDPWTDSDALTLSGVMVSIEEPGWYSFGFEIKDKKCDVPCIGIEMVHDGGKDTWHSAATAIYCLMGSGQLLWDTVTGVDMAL
measurement_protocol: Inhibitory activity was determined against Neuraminidase B/Memphis
Please respond with the number in µM and leave the unit unwritten.

Which IC50 reading was recorded for the molecule CCN(C(=O)N1C[C@@H](C(=O)O)[C@@H](N)[C@@H]1CNC(C)=O)C(C)C ?
340

Also need CCN(C(=O)N1C[C@@H](C(=O)O)[C@@H](N)[C@@H]1CNC(=O)C(F)(F)F)C(C)C , thanks.
8
